measured.target: Alpha-1B adrenergic receptor (Homo sapiens, UniProt P35368)
Sequence (P35368 whole entry): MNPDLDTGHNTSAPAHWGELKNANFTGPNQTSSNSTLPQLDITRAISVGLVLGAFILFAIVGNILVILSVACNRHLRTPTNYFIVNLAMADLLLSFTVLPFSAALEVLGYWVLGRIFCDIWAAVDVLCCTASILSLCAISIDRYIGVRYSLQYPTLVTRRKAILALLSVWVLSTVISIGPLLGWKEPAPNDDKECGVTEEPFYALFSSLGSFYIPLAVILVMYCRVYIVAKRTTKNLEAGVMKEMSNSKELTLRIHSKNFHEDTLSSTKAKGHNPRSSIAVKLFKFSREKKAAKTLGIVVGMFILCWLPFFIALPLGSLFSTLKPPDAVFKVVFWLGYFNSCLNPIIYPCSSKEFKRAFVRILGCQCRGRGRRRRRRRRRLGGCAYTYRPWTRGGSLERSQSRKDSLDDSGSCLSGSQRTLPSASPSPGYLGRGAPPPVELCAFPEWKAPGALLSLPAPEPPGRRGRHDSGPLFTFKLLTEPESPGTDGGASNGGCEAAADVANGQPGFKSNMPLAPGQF
procedure.summary: Displacement of [3H]prazosin from human recombinant alpha1B adrenoceptor expressed in CHO cells after 30 mins by liquid scintillation counting
Reported pKi values for a set of compounds
In textbook form, pKi equals minus log to base ten of the concentration in mol/L.

COc1ccccc1N1CCN(CC2COC3(CCN(S(=O)(=O)c4cccs4)CC3)O2)CC1 (stereo not given)    7.07
COc1ccccc1N1CCN(CC2COC3(CCCCC3)O2)CC1 (stereo not given)    6.90
COc1ccccc1N1CCN(CC2COC3(CCN(C(=O)c4ccco4)CC3)O2)CC1 (stereo not given)    6.80

Asked: Fill in the blank: the reported pKi of COc1ccccc1N1CCN(CC2COC3(CCSCC3)O2)CC1 (stereo not given) is ____.
Given back: 6.85

Asked: Also COc1ccccc1N1CCN(CC2COC3(CCS(=O)(=O)CC3)O2)CC1 (stereo not given) , if possible.
Given back: 6.54

Asked: Entry to check: COc1ccccc1N1CCN(CC2COC3(CCN(Cc4ccccc4)CC3)O2)CC1 (stereo not given)
Given back: 7.78

Asked: Then this compound: COc1ccccc1N1CCN(CC2COC3(CCN(S(=O)(=O)c4ccc([N+](=O)[O-])cc4)CC3)O2)CC1 (stereo not given)
Given back: 6.96

Asked: Entry to check: COc1ccccc1N1CCN(CC2COC3(CCN(C(=O)NC(C)(C)C)CC3)O2)CC1 (stereo not given)
Given back: 6.89

Asked: Then what about the compound CCCCNC(=O)N1CCC2(CC1)OCC(CN1CCN(c3ccccc3OC)CC1)O2 (stereo not given) ?
Given back: 6.62

Asked: How about COc1ccccc1N1CCN(CC2COC3(CCN(C(=O)C4CCCCC4)CC3)O2)CC1 (stereo not given) ?
Given back: 6.96
